tested on: NCI-H522 lung; assay: NCI-60 one-dose screen, 48 h; settings: 10 µM unless noted
The panel holds about 83,000 compounds, 20% with a hit somewhere; the sample as a whole holds those more often. Activity calls are given as the source filed them. How the source made its calls: active means growth percent below 10; inactive means the rest.
Hi there, use one of these labels in your reply, thanks! active, inactive

Problem: Kindly provide the recorded test outcome for the following molecule: C/C(CC(C)(C)N1CC1)=N\NC(=O)Nc1cccc2ccccc12
Result: inactive

Problem: Assay result, entry COC(=O)[C@@H](C)C[C@H](Cc1ccccc1)NC(=O)c1csc([C@@H](C[C@H](C(C)C)N(C)C(=O)C2(NC(=O)[C@H]3CCCCN3C)CCC2)OC(C)=O)n1 — outcome?
Result: active

Problem: Recorded test outcome, item CCOC(=O)[C@@H](C)C[C@H](Cc1ccccc1)NC(=O)c1csc([C@@H](C[C@H](C(C)C)N(C)C(=O)[C@H](CCC(C)C)NC(=O)[C@H]2CCCCN2C)OC(C)=O)n1
Result: active

Problem: Outcome logged for NC(CCl)CCl in this assay:
Result: inactive

Problem: Any idea what this test logged for COC(=O)[C@@H](C)C[C@H](Cc1ccccc1)NC(=O)c1nc([C@@H](C[C@H](C(C)C)N(C)C(=O)[C@@H](NC(=O)[C@H]2C[C@H](O)CCN2C)C(C)C)OC(C)=O)sc1C(C)C ?
Result: active

Problem: Lab log entry: C/C(=C\c1ccn(-c2ccc(N)cc2C(F)(F)F)n1)[C@@H]1C[C@@H]2O[C@]2(C)CCC[C@H](C)[C@H](O)[C@@H](C)C(=O)C(C)(C)[C@@H](O)CC(=O)O1 — outcome as called in the assay?
Result: active

Problem: Hi team, can someone confirm the assay call for C[C@]12CC[C@H]3[C@@H](CC4SC(N)=NC45C/C(=N/NC(N)=O)CC[C@]35C)[C@@H]1CCC2=O (some centres not stated) ?
Result: active

====

system: NCI-H322M lung; experiment: NCI-60 one-dose screen, 48 h; details: 10 µM unless noted
About 83,000 compounds went through this panel and 20% of them were active in at least one assay; those are over-represented in the sample as a whole. Activity calls are given as the source filed them. The calls were made as follows: active = growth percent below 10; inactive = the rest.
Field 'call' accepts 1 (yes) (active), 0 (no) (inactive)

Problem: Please indicate how the test categorized COc1ccc(/C=C\c2cc(OC)c(OC)c(OC)c2)c(NS(=O)(=O)c2ccc(Cl)cc2)c1O .
Result: 0 (no)

Problem: Hello, I am checking results. What call was entered for O=Cc1cn(Cc2ccc(Cl)cc2)c2ccccc12 ?
Result: 0 (no)

Problem: Recorded test call requested for O=C(O)c1c(Cl)n(Cc2ccc(O)cc2)c2ccc(O)cc12
Result: 0 (no)

Problem: Tell me the assay call for O=[N+]([O-])c1ccc([Se]C2CCCCC2Cl)c([N+](=O)[O-])c1 (stereo not given) please.
Result: 0 (no)

Problem: Record lookup: outcome of this test for CC(C)=CCC/C(C)=C/C=N\N=C(/N)N[N+](=O)[O-] ?
Result: 0 (no)

Problem: I'd appreciate the recorded outcome for Cn1cc(-c2csc(-c3cn(CCCCN4CCCCC4)c4ccc(F)cc34)n2)c2cccnc21 from this test.
Result: 0 (no)

Problem: Tell me the recorded outcome of this test for C=CCCCCCCCCC(=O)[O-].C=CCCCCCCCCC(=O)[O-].[Zn+2] .
Result: 0 (no)

Problem: Just curious, what result did CN1C(=O)N[C@H]2[C@@H]3NC(=O)c4ccc(Br)n4[C@@H]3C[C@]21O get here?
Result: 1 (yes)

Problem: Any idea what this test logged for COc1cc2c(cc1OCc1ccccc1)C(CC(C)C)=[N+](C)CC2 ?
Result: 0 (no)

Problem: How was C=CCc1cc2c(cc1OCC)OCO2 classified in this test?
Result: 0 (no)

Problem: Hi, do you know how COc1ccc(C(=O)c2cc(OC)c(OC)c(OC)c2)cc1OC(C)=O came out in this test?
Result: 0 (no)

Problem: What classification did CC1[C@H](C)OC(=O)CC(O)CC(O)CC(O)CCC(O)C(O)C[C@]2(O)CC(O)C(C(=O)O)C(CC(OC3O[C@H](C)[C@@H](O)[C@H](N)[C@@H]3O)/C=C/C=C/C=C/C=C/CC/C=C/C=C/[C@H](C)[C@H]1O)O2 (stereo not given in full) end up with in this test?
Result: 0 (no)

Problem: Test call for this molecule, please: CC[C@H](C)[C@H](NC(=O)[C@H]1CCCCN1C)C(=O)N(C)[C@H](C[C@@H](OC(C)=O)c1nc(C(=O)N[C@@H](Cc2ccccc2)C[C@H](C)C(=O)OC)cs1)C(C)C
Result: 0 (no)

Problem: Each molecule tested received a call. Report the one for CC(=O)OC1CCC2(C)C(CCC3C2CC(=O)C2(C)C3CC(Sc3ccc(N(CCCl)CCCl)cc3)C2C(C)=O)C1 (stereo not given) .
Result: 0 (no)

Problem: Could you kindly confirm the outcome this assay logged for C/C(=C\c1ccn(-c2ccccc2N)n1)[C@@H]1C[C@@H]2O[C@]2(C)CCC[C@H](C)[C@H](O)[C@@H](C)C(=O)C(C)(C)[C@@H](O)CC(=O)O1 ?
Result: 0 (no)

Problem: Answer briefly: the call reported for Nc1nnnc2nc[nH]c12 in this assay.
Result: 0 (no)

Problem: Recorded test call requested for c1cnc2[nH]cc(-c3csc(-c4cn(CCCCN5CCOCC5)c5ccccc45)n3)c2c1
Result: 0 (no)

Problem: GET /call?item= CC[S][Hg][Cl] returns the recorded outcome of this test.
Result: 0 (no)

Problem: Hi, do you know how CC(=O)OCc1cc[c]([Hg][Cl])o1 came out in this test?
Result: 0 (no)

Problem: Answer briefly: the call reported for CN1C(=O)C(=Cc2cn(Cc3ccccc3)c3ccccc23)C(=O)N(C)C1=O in this assay.
Result: 0 (no)

Problem: Would you mind telling me which call this test gave [Au+].[N-]=C=O.c1ccc(CN2[CH-]N(Cc3ccccc3)C(c3ccccc3)=C2c2ccccc2)cc1 ?
Result: 0 (no)

Problem: Test call for this molecule, please: CC12CCC(O)CC1=CCC1C2CCC2(C)C(O)CCC12 (stereo not given)
Result: 0 (no)

Problem: Tell me the assay call for N#C[Se]Cc1cc(-c2ccccc2)n(-c2ccc(S(N)(=O)=O)cc2)n1 please.
Result: 1 (yes)

Problem: Assay result, entry CC12CC(=O)C3(SC#N)C(CCC4=CC(=O)CCC43C)C1CCC2=O (stereo not given) — outcome?
Result: 0 (no)

Problem: Please state the recorded outcome for this molecule: CCn1c2ccccc2c2cc(C(=O)c3cccc4c3CCCN4)ccc21
Result: 0 (no)

Problem: Lab log entry: O=C1C(N2CC2)=C(N2CC2)C(=O)C(N2CC2)=C1N1CC1 — outcome as called in the assay?
Result: 1 (yes)

Problem: Answer briefly: the call reported for COC(=O)[C@@H](C)C[C@H](Cc1ccccc1)NC(=O)c1nc([C@@H](C[C@H](C(C)C)N(C)C(=O)[C@@H](NC(=O)[C@H]2CCCCN2C)C(C)C)OC(C)=O)sc1C(C)C in this assay.
Result: 0 (no)

Problem: Outcome? O=C1Nc2ccccc2C2c3cccn3-c3ccccc3CN12 (stereo not given)
Result: 0 (no)

Problem: Fill in: this test's call for CC[C@H](C)[C@H](NC(=O)[C@H]1CCCCN1C)C(=O)N(C)[C@H](C[C@@H](OC(C)=O)c1nc(C(=O)NC23CC(C(=O)OC)(C2)C3)cs1)C(C)C is ___
Result: 0 (no)

Problem: Call for entry CN1CC(=O)N(O)C1(C)c1cccnc1 (stereo not given) :
Result: 0 (no)

Problem: Please state the recorded outcome for this molecule: O=C(CN1CCN(C(=O)c2ccco2)CC1)Nc1ccc(Cl)cc1C(=O)c1ccccc1Cl
Result: 0 (no)

Problem: In this assay, the call recorded for COP(=O)(OC)C(O)c1ccc(Cl)cc1 (stereo not given) was what?
Result: 0 (no)

Problem: Give the logged outcome of this assay for the following molecule: O=C(Nc1ccncc1F)c1cn(CC2CC2)c2ccccc12
Result: 0 (no)

Problem: Could you please tell me the result logged for COc1ccc(C(O)(C(=O)O)c2ccc(OC)cc2)cc1 in this assay?
Result: 0 (no)

Problem: Per the assay record, what outcome was assigned to N#CCCNc1ccccc1 ?
Result: 0 (no)

Problem: Entry CC(C)=CCc1c(O)c(C(=O)CC(C)C)c(O)c2c(-c3ccccc3)cc(=O)oc12 : call = ?
Result: 0 (no)

Problem: Lab log entry: O=C1CNC(c2ccccc2)c2cc(Cl)ccc2N1 (stereo not given) — outcome as called in the assay?
Result: 0 (no)

Problem: Please let me know the test result on file for CCCCCCCC[n+]1ccc2ccccc2c1 .
Result: 0 (no)

Problem: Status in this test for CNCc1cccnc1 ?
Result: 0 (no)

Problem: Test call, this molecule: C=CC12CCN(CC1)C(C(O)c1ccnc3ccc(OC)cc13)C2 (stereo not given)
Result: 0 (no)
